Value source: patent US10626125B2

target: human recombinant Monoacylglycerol Lipase (Homo sapiens, UniProt Q99685); test: MAGL enzymatic assay (IC50; 7-HCA substrate added at T=0 min or T=30 min); type: biochemical; conditions: MAGL (T = 30 min) IC50, substrate 7-HCA added after 30 minute incubation (T=30 min); geometric mean of 2-5 determinations unless otherwise indicated
Sequence (Q99685 whole entry): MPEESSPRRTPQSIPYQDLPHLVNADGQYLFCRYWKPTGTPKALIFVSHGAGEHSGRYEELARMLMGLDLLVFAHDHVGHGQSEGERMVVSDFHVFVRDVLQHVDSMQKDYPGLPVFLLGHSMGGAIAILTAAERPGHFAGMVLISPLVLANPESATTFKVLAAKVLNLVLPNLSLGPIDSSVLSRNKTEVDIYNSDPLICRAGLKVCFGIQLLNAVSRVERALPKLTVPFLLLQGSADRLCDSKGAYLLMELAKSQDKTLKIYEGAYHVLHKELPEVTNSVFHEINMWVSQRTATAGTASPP
readoutKind: IC50 (nM)

# count of solved cases: 3
molecule | targetOrSystem | IC50 [nM]
O=C(O[C@H](CO)C(F)(F)F)N1CCC2(CC1)CC(c1ccc(C(F)(F)F)cn1)C2 [Example 79] | human recombinant Monoacylglycerol Lipase (Homo sapiens, UniProt Q99685) | 1
N#Cc1ccc(C2COC3(CCN(C(=O)O[C@H](CO)C(F)(F)F)CC3)C2)nc1 (single isomer, unassigned) [Example 38] | human recombinant Monoacylglycerol Lipase (Homo sapiens, UniProt Q99685) | 24
O=C(O[C@H](CO)C(F)(F)F)N1CCC2(CC1)CC(n1ccc(C(F)(F)F)n1)CO2 (single isomer, unassigned) [Example 53] | human recombinant Monoacylglycerol Lipase (Homo sapiens, UniProt Q99685) | 1

(a) O=C(O[C@H](CO)C(F)(F)F)N1CCC2(CC1)CC(Oc1ccnc(C(F)(F)F)c1)C2 [Example 59]
(b) CC(C)(C)c1cnn(C2COC3(CCN(C(=O)O[C@H](CO)C(F)(F)F)CC3)C2)c1 (single isomer, unassigned) [Example 21]
(c) O=C(O[C@H](CO)C(F)(F)F)N1CCC2(CC1)CC(n1cc(C(F)F)cn1)C2 [Example 66]
(d) O=C(O[C@H](CO)C(F)(F)F)N1CCC2(CCC(c3ccc(F)cn3)CO2)CC1 (single isomer, unassigned) [Example 74]
// query Sort (4 molecules) by IC50: min first. # format: label list in the order the request specifies
// result a, b, c, d
(a: 1 nM, b: 2 nM, c: 4 nM, d: 6 nM)

(A) O=C(O[C@H](CO)C(F)(F)F)N1CCC2(CC1)CC(c1ccnc(C(F)(F)F)c1)C2 [Example 68]
(B) CN(C(=O)Cc1ccccc1)C1CC2(CCN(C(=O)O[C@H](CO)C(F)(F)F)CC2)C1 [Example 44]
(C) O=C(O[C@H](CO)C(F)(F)F)N1CCC2(CC1)CC(n1cccn1)C2 [Example 56]
(D) O=C(O[C@H](CO)C(F)(F)F)N1CCC2(CC1)CC(c1c(F)cccc1F)CO2 (single isomer, unassigned) [Example 32]
// query Please list these molecules in decreasing order of IC50. # format: label list in the order the request specifies
// result C, B, A, D

----------
biological target: human recombinant Monoacylglycerol Lipase (Homo sapiens); experiment: MAGL inactivation (kinact/KI from enzyme progress curves, T=0 min protocol); conditions: from plot of Kobs vs. compound concentration, geometric mean of 2-5 determinations (b: ≥6)
readoutKind: MAGL kinact/KI

compound | MAGL kinact/KI
O=C(O[C@H](CO)C(F)(F)F)N1CCC2(CC1)CC(c1cc(C(F)F)ccn1)C2 | 75400 1/s per M
O=C(O[C@H](CO)C(F)(F)F)N1CCC2(CC1)CC(c1ccnc(C(F)(F)F)c1)C2 | 88300 1/s per M
O=C(O[C@H](CO)C(F)(F)F)N1CCC2(CC1)CC(Cn1cc(C(F)(F)F)cn1)CO2 (single isomer, unassigned) [Example 4] | 4710 1/s per M

Query compound follows.
// query Reported MAGL kinact/KI for "O=C(O[C@H](CO)C(F)(F)F)N1CCC2(CC1)CC(Oc1cccc(C(F)F)n1)C2" : what is it?
// result 71700 1/s per M
